Test system: Desulfovibrio desulfuricans KCTC 5786
Experiment: Antibacterial activity evaluation, paper disk clear zone and MIC
Format: cell-based
Conditions: Desulfovibrio desulfuricans, KCTC5786; antibacterial agent concentration 0.1%; 8 mm paper disk, 50 μl; — = negative; read-out: CZ (mm) clear zone
Below, each entry is listed alongside its reported zone of inhibition at 0.1 %.
Report as a plain number; the unit mm is understood.

- Molecular string: "O=[N+]([O-])C(Br)(CO)CO"
  zone of inhibition at 0.1 % (mm): 8

Then this compound:
Query O=c1[nH]sc2ccccc12 on Desulfovibrio desulfuricans KCTC 5786; zone of inhibition at 0.1 % returned: 6.5
